biological target: Melanocortin receptor 3 (Homo sapiens); assay: Agonist activity at human recombinant MC3 receptor expressed in CHO cells assessed as cAMP accumulation by enzyme fragment complementation assay
Sequence (P41968 whole entry, the tested form may be a part): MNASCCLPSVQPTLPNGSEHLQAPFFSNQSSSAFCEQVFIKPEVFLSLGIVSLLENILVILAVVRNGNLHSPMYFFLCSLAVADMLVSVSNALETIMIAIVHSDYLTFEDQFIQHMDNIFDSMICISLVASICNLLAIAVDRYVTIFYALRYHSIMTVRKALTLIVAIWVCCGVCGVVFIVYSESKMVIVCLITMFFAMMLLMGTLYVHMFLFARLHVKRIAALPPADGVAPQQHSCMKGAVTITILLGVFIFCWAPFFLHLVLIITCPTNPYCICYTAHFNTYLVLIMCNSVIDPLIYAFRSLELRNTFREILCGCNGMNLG
pEC50: −log10 of the molar value.
property: pEC50

mol: C[C@@H]1CN(C(=O)[C@@H]2CNC[C@H]2c2ccc(F)cc2F)C[C@H](C)[C@@]1(O)c1ccccc1
property: pEC50
limit operator: <
obs value: 4.60
//
mol: CC(C)N1C[C@@H](C(=O)N2C[C@@H](C)[C@](O)(c3ccccc3)[C@@H](C)C2)[C@H](c2ccc(F)cc2F)C1
property: pEC50
limit operator: =
obs value: 4.94
//
mol: C[C@@H]1CN(C(=O)[C@@H]2CN(C(C)(C)C)C[C@H]2c2ccc(F)cc2F)C[C@H](C)[C@@]1(O)c1ccc(Cl)cc1
property: pEC50
limit operator: =
obs value: 5.43
//
mol: C[C@@H]1CN(C(=O)[C@@H]2CN(C(C)(C)C)C[C@H]2c2ccc(F)cc2F)C[C@H](C)[C@@]1(O)c1c(F)cccc1F
property: pEC50
limit operator: =
obs value: 5.34
//
mol: C[C@@H]1CN(C(=O)[C@H]2CN(C3CCOCC3)C[C@@H]2c2ccc(F)cc2F)C[C@H](C)[C@@]1(O)c1ccccc1
property: pEC50
limit operator: <
obs value: 4.84
//
mol: C[C@@H]1CN(C(=O)[C@H]2CN(c3ccncn3)C[C@@H]2c2ccc(F)cc2F)C[C@H](C)[C@@]1(O)c1ccccc1
property: pEC50
limit operator: =
obs value: 6.22
//
mol: C[C@@H]1CN(C(=O)[C@H]2CN(c3ccccn3)C[C@@H]2c2ccc(F)cc2F)C[C@H](C)[C@@]1(O)c1ccccc1
property: pEC50
limit operator: =
obs value: 7.15
